Values were extracted from patent US12227485B2.

- Tested on: Mannheimia haemolytica
- assay explanation: MIC by broth-microdilution method (CLSI VET01-A4), Mannheimia haemolytica strains
- Assay type: cell-based
- particulars: Mannheimia haemolytica MH 6374 (ATCC 33396), reference strain
parameter measured: MIC MH 6374 (µM)
State the answer as a number, implicitly in µM.

Example entries begin here.
>>> print(df.to_string())
                                   compound  parameter_measured  measurement
0  C[C@@H](O)[C@H](Nc1ncnc2cc(C#Cc3ccc(CNC4CC4)cc3)ccc12)C(=O)NO         MIC MH 6374          1.6
1  C[C@@H](O)[C@H](Nc1nsc2cc(C#Cc3ccc(CNC4CC4)cc3)ccc12)C(=O)NO         MIC MH 6374          0.4
2  C[C@@H](O)[C@H](Nc1nsc2cc(C#Cc3ccc(CNCC(F)(F)F)cc3)ccc12)C(=O)NO         MIC MH 6374          1.6
3  COCCNCc1ccc(C#Cc2ccc3c(NC(C(=O)NO)C(C)(C)N)ncnc3c2)cc1 (racemic)         MIC MH 6374           25
4  C=CCNCc1ccc(C#Cc2ccc3c(N[C@H](C(=O)NO)[C@@H](C)O)nsc3c2)cc1         MIC MH 6374          0.4

Now look at this entry.
stdin: What value of MIC MH 6374 has been recorded for this entry: C[C@@H](O)[C@H](Nc1nsc2cc(C#Cc3ccc(CNCc4ccccc4)cc3)ccc12)C(=O)NO
stdout: 0.8
